- experimental-target: Luciferin 4-monooxygenase (Photinus pyralis) (UniProt P08659)
- Sequence (P08659 whole entry, looked up): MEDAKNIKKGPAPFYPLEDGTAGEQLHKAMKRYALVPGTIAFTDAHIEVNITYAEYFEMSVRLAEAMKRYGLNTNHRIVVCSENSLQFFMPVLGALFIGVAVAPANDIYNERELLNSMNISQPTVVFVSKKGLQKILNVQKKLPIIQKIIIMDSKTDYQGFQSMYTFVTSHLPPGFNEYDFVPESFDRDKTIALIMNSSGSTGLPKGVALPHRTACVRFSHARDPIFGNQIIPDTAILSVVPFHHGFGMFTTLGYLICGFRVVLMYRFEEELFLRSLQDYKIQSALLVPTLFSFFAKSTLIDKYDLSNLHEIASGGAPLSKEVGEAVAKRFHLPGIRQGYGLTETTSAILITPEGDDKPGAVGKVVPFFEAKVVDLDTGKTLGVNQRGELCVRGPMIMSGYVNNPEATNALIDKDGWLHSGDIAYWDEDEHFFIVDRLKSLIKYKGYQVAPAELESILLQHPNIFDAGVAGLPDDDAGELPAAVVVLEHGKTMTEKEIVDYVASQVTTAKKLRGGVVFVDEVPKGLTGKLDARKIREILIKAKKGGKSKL
- assay-notes: qHTS profiling assay for firefly luciferase inhibitor/activator using purifed enzyme and Km concentrations of substrates (counterscreen for miR-21 project); also: nearly all actives have a fitted effect of over 55% in size
- condition-description: purified FLuc, luminescence inhibition; series mostly up to 57.5 µM
- Excerpt: MLPCN Grant: 1 R21 NS059478-01 (miR-21 grant) Assay Provider: NCGC NCGC Assay Overview: Firefly (Photinus pyralis) luciferase is one of the most commonly used transcriptional reporters for a number of reasons. […] Although light produced in a bioluminescence reaction is of lower intensity than that produced during fluorescence emission, this is offset by little to no background light inherent to luminescent assays. […]
The campaign covered roughly 360,000 compounds. About 25,000 (6.9%) were called active. Inconclusive results (about 9%) are left out. Calls follow the shape of the dose curve; as a rule, active = well fitted inhibition curve with a large enough effect; inconclusive = small, poorly fitted or top-dose-only effect; inactive = flat fitted curve, though single readings scatter. The entries come from a sample that favours actives as a whole.
Allowed answers: active, inactive

Examples with answers:
compound | label-class
C/C(=N\OC(=O)c1ccccc1)c1c(C)nc2cc(C)ccn12 | inactive
O=C(NCc1cccs1)c1ccc2c(c1)ncn2C1CCCC1 | active
COc1ccc(C2C(=O)N(C3CCCCCC3)CC(=O)N2CCc2ccc(Cl)cc2)cc1OC (centres undefined) | inactive

Query compound follows.
Ask: Dear colleague, could you share the recorded outcome for Fc1cc(F)c2nc(Nc3nc4c(F)cccc4s3)sc2c1 when you have a moment?
Result: active

====

- experimental-target: Luciferin 4-monooxygenase (Photinus pyralis) (UniProt P08659)
- assay-notes: qHTS profiling assay for firefly luciferase inhibitor/activator using purifed enzyme and Km concentrations of substrates (counterscreen for miR-21 project); also: nearly all actives have a fitted effect of over 55% in size
- condition-description: purified FLuc, luminescence inhibition; series mostly up to 57.5 µM
In all, about 360,000 compounds went through this assay and about 25,000 (6.9%) were called active. Another 9% or so got no clear call; they are omitted. Calls come from the whole dose curve; as a rule, active = well fitted inhibition curve with a large enough effect; inconclusive = small, poorly fitted or top-dose-only effect; inactive = flat fitted curve, though single readings scatter. The sample holds actives, similar compounds and a random draw of the others, so the mix is not that of the screen.
Allowed answers: true (1) for active, false (0) for inactive

Examples with answers:
compound | label-class
CC1CC(C)CN(CCC(=O)Nc2ccc3c(c2)CCC3)C1 (stereo not given) | false (0)
CCOc1cc(/C=C2\SC(N3CCCC(C)C3)=NC2=O)ccc1O (stereo not given) | true (1)
CCOC(=O)N1CCN(Cc2nc3cc(NC(C)=O)ccc3n2C)CC1 | false (0)

Ask: Dear colleague, could you share the recorded outcome for C/C=N/NC(=O)CCCC(=O)N/N=C/C when you have a moment?
Result: false (0)

Ask: Dear colleague, could you share the recorded outcome for Cc1nn(Cc2ccccc2)c(C)c1C(=O)N1CCN(CC(=O)Nc2ccccc2Cl)CC1 when you have a moment?
Result: false (0)

Ask: Dear colleague, could you share the recorded outcome for CCN1CCN(CCCNC(=O)c2ccc3c(c2)sc2nc(-c4ccc(OC)cc4)cn23)CC1 when you have a moment?
Result: false (0)

Ask: Dear colleague, could you share the recorded outcome for CN(c1ccccc1)c1ccc(/C=c2\s/c(=C(/C#N)C(=O)C(C)(C)C)n(Cc3ccco3)c2=O)cc1 when you have a moment?
Result: true (1)

Ask: Dear colleague, could you share the recorded outcome for O=C(NCCCNC(=O)c1ccccc1Cl)c1cnccn1 when you have a moment?
Result: false (0)

Ask: Dear colleague, could you share the recorded outcome for COc1ccc(/C=C2\SC(=N)N(c3ccc(F)cc3)C2=O)cc1 when you have a moment?
Result: false (0)

Ask: Dear colleague, could you share the recorded outcome for CN(CC(=O)Nc1ccc(Cl)c(C(F)(F)F)c1)C(=O)CCC(=O)c1ccccc1 when you have a moment?
Result: false (0)

Ask: Dear colleague, could you share the recorded outcome for CC12CCC(=O)N1C(C(=O)Nc1ccc(F)c(F)c1F)CS2 (stereo not given) when you have a moment?
Result: false (0)

Ask: Dear colleague, could you share the recorded outcome for Cc1ccnc(N2CCCC(C(=O)Nc3cc(F)ccc3C)C2)n1 (stereo not given) when you have a moment?
Result: false (0)

====

- experimental-target: Luciferin 4-monooxygenase (Photinus pyralis) (UniProt P08659)
- assay-notes: qHTS profiling assay for firefly luciferase inhibitor/activator using purifed enzyme and Km concentrations of substrates (counterscreen for miR-21 project); also: nearly all actives have a fitted effect of over 55% in size
- condition-description: purified FLuc, luminescence inhibition; series mostly up to 57.5 µM
Among all 360,000 compounds or so, about 25,000 (6.9%) were called active. About 9% were inconclusive and are not listed. Calls come from the whole dose curve; as a rule, active = well fitted inhibition curve with a large enough effect; inconclusive = small, poorly fitted or top-dose-only effect; inactive = flat fitted curve, though single readings scatter. Many of the other results were omitted from the sample, so actives are more common in it than they were.
Allowed answers: 1 (yes) (active), 0 (no) (inactive)

Examples with answers:
compound | label-class
COc1ccc(C(=O)Nc2cccc(S(C)(=O)=O)c2)cc1 | 1 (yes)
N#Cc1ccc(OCC(=O)NC(=O)NC2CCS(=O)(=O)C2)cc1 (stereo unspecified) | 0 (no)
COc1ccc(-n2cnnc2SCC(=O)Nc2cccc(S(N)(=O)=O)c2)cc1 | 0 (no)
COc1ccc(C2CC(c3cccs3)=NN2c2nc(C)c(C(C)=O)s2)cc1OC (stereo unspecified) | 0 (no)

Ask: Dear colleague, could you share the recorded outcome for COc1ccc(C2CC(c3cccs3)=NN2c2ccc(F)cc2)cc1OC (stereo unspecified) when you have a moment?
Result: 0 (no)

Ask: Dear colleague, could you share the recorded outcome for Cc1sc2ncnc(SCC(=O)Nc3ccc(CN4CCCC4)cc3)c2c1C when you have a moment?
Result: 0 (no)

====

- experimental-target: Luciferin 4-monooxygenase (Photinus pyralis) (UniProt P08659)
- assay-notes: qHTS profiling assay for firefly luciferase inhibitor/activator using purifed enzyme and Km concentrations of substrates (counterscreen for miR-21 project); also: nearly all actives have a fitted effect of over 55% in size
- condition-description: purified FLuc, luminescence inhibition; series mostly up to 57.5 µM
The whole screen tested about 360,000 compounds, of which about 25,000 (6.9%) were called active. About 9% were inconclusive and are not listed. Calls come from the whole dose curve; as a rule, active = well fitted inhibition curve with a large enough effect; inconclusive = small, poorly fitted or top-dose-only effect; inactive = flat fitted curve, though single readings scatter. Many of the other results were omitted from the sample, so actives are more common in it than they were.
Allowed answers: active, inactive

Ask: Dear colleague, could you share the recorded outcome for COc1ccccc1CNS(=O)(=O)c1cc(Br)cc2c1N(C(C)=O)C(C)C2 (configuration not stated) when you have a moment?
Result: inactive

Ask: Dear colleague, could you share the recorded outcome for CCOc1ccc(/C=C(\C#N)c2nc3ccccc3c(=O)[nH]2)cc1OC when you have a moment?
Result: inactive

====

- experimental-target: Luciferin 4-monooxygenase (Photinus pyralis)
- assay-notes: qHTS profiling assay for firefly luciferase inhibitor/activator using purifed enzyme and Km concentrations of substrates (counterscreen for miR-21 project); also: nearly all actives have a fitted effect of over 55% in size
- condition-description: purified FLuc, luminescence inhibition; series mostly up to 57.5 µM
Hit rate of the full screen: of about 360,000 compounds, about 25,000 (6.9%) were called active. Not shown: some 9% with an inconclusive outcome. Calls follow the shape of the dose curve; as a rule, active = well fitted inhibition curve with a large enough effect; inconclusive = small, poorly fitted or top-dose-only effect; inactive = flat fitted curve, though single readings scatter. The list comes from a sample in which actives are over-represented; it also holds close analogues and randomly drawn compounds.
Allowed answers: active, inactive

structure-smiles | experimental-target | label-class
O=C(CCCN=C1NS(=O)(=O)c2ccccc21)OCC(=O)c1ccc(F)c(F)c1 | Luciferin 4-monooxygenase (Photinus pyralis) | inactive
Cc1nc(C)c(-c2csc(NCCc3ccccc3)n2)s1 | Luciferin 4-monooxygenase (Photinus pyralis) | active

Query compound follows.
Ask: Dear colleague, could you share the recorded outcome for CCCNC(=O)c1c(Cl)cnn1-c1ccc(C)cc1 when you have a moment?
Result: active

====

- experimental-target: Luciferin 4-monooxygenase (Photinus pyralis) (UniProt P08659)
- assay-notes: qHTS profiling assay for firefly luciferase inhibitor/activator using purifed enzyme and Km concentrations of substrates (counterscreen for miR-21 project); also: nearly all actives have a fitted effect of over 55% in size
- condition-description: purified FLuc, luminescence inhibition; series mostly up to 57.5 µM
In all, about 360,000 compounds went through this assay and about 25,000 (6.9%) were called active. About 9% were inconclusive and are not listed. Calls follow the shape of the dose curve; as a rule, active = well fitted inhibition curve with a large enough effect; inconclusive = small, poorly fitted or top-dose-only effect; inactive = flat fitted curve, though single readings scatter. Many of the other results were omitted from the sample, so actives are more common in it than they were.
Allowed answers: 1 (yes) (active), 0 (no) (inactive)

Examples with answers:
molecule | label-class
COc1cc(Cl)c(C)cc1NC(=O)CN1CCCCCC1 | 0 (no)
O=C(/C=C\c1cn(-c2ccccc2)nc1-c1cccs1)N1CCOCC1 | 1 (yes)
CCOC(=O)C1CCCN(CC(=O)Nc2cc(C)c3c(=O)oc4ccccc4c3n2)C1 (stereo not given) | 0 (no)

Ask: Dear colleague, could you share the recorded outcome for O=C(COC(=O)/C=C/c1cn(-c2ccccc2)nc1-c1cccnc1)Nc1ccc(Cl)cc1Cl when you have a moment?
Result: 0 (no)

Ask: Dear colleague, could you share the recorded outcome for CC(C)(C)c1ccc(NC(=O)NCc2ccco2)cc1 when you have a moment?
Result: 1 (yes)

Ask: Dear colleague, could you share the recorded outcome for CCOC(=O)CSc1nnc(NC(=O)c2cccc(S(=O)(=O)N3CCCC3)c2)s1 when you have a moment?
Result: 1 (yes)

Ask: Dear colleague, could you share the recorded outcome for Cc1ccc(-n2c3nc(=O)[nH]c(=O)c-3cc3c(Cl)cccc32)cc1 when you have a moment?
Result: 0 (no)

Ask: Dear colleague, could you share the recorded outcome for CC(=O)Nc1ccc(NC(=O)COC(=O)c2ccccc2C(=O)c2ccccc2)cc1 when you have a moment?
Result: 0 (no)

====

- experimental-target: Luciferin 4-monooxygenase (Photinus pyralis)
- assay-notes: qHTS profiling assay for firefly luciferase inhibitor/activator using purifed enzyme and Km concentrations of substrates (counterscreen for miR-21 project); also: nearly all actives have a fitted effect of over 55% in size
- condition-description: purified FLuc, luminescence inhibition; series mostly up to 57.5 µM
In all, about 360,000 compounds went through this assay and about 25,000 (6.9%) were called active. Inconclusive results (about 9%) are left out. The call rests on the fitted dose curve; in most records, active means well fitted inhibition curve with a large enough effect; inconclusive means small, poorly fitted or top-dose-only effect; inactive means flat fitted curve, though single readings scatter. What follows is part of a selection rich in actives, with near analogues and random picks from the rest.
Allowed answers: Yes for active, No for inactive

compound | experimental-target | label-class
Cc1cccc(C2c3[nH]c4ccccc4c3CCN2C(=O)c2cc(-c3cccn3C)n[nH]2)n1 (stereo not drawn) | Luciferin 4-monooxygenase (Photinus pyralis) | No
CCOC(=O)C(Cc1ccccc1)NC(=O)CCC(=O)c1ccc(OC)cc1 (stereo not drawn) | Luciferin 4-monooxygenase (Photinus pyralis) | No
S=C(Nc1ccc2c(c1)OCO2)N1CCCC1 | Luciferin 4-monooxygenase (Photinus pyralis) | No
O=C(Nc1ccc2c(c1)OCO2)c1sc2cc(Cl)ccc2c1Cl | Luciferin 4-monooxygenase (Photinus pyralis) | No
CCN(CC(=O)NCc1ccc(Cl)cc1)C(=O)c1c(C)noc1C | Luciferin 4-monooxygenase (Photinus pyralis) | No
COc1ccc(Cn2ccn(Cc3cccc(OC)c3)c(=O)c2=O)cc1 | Luciferin 4-monooxygenase (Photinus pyralis) | No
O=C(CN1c2ccccc2S(=O)(=O)c2ccccc21)Nc1cccc(C(F)(F)F)c1 | Luciferin 4-monooxygenase (Photinus pyralis) | No
COc1ccc(C(=O)NC(Cc2ccc(OC(=O)c3ccc(OC)cc3)cc2)C(=O)O)cc1 (stereo not drawn) | Luciferin 4-monooxygenase (Photinus pyralis) | Yes

Query compound follows.
Ask: Dear colleague, could you share the recorded outcome for O=C(Nc1ccc2c(c1)OCCO2)C1CCCC1 when you have a moment?
Result: Yes

Cited source: PubChem BioAssay AID588342
